test system: Tyrosine-protein kinase JAK3 (Homo sapiens)
Sequence (P52333 whole entry): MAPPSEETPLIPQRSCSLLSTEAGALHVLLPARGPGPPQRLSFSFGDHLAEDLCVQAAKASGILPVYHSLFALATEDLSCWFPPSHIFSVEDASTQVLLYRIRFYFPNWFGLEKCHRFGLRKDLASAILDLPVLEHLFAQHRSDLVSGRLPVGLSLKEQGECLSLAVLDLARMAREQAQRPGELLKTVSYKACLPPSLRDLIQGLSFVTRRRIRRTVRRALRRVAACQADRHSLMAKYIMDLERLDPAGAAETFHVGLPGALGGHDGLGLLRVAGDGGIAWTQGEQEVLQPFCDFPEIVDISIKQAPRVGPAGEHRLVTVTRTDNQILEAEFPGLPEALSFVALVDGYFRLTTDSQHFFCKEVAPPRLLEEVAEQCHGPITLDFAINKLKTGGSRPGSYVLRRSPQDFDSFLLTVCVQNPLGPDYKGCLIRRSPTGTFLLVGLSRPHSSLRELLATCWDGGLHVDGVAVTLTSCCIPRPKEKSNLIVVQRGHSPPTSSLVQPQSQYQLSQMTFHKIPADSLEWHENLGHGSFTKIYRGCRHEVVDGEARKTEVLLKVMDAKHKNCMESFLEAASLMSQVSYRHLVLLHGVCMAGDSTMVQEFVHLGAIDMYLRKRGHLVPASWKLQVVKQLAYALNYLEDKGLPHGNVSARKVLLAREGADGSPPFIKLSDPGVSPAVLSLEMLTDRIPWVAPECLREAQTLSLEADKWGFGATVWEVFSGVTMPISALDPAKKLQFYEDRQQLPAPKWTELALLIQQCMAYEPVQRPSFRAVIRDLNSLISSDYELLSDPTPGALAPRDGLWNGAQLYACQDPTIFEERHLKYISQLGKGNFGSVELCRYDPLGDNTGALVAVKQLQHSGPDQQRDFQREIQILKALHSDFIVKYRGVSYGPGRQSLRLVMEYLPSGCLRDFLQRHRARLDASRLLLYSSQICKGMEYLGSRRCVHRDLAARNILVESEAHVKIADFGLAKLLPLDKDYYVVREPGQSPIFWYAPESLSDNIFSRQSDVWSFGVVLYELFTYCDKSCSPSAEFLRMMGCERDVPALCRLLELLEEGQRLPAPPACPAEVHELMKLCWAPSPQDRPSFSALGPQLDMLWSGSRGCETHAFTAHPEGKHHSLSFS
Could you mark each record y if its Ki falls strictly under 0.05 µM, and n if it equals or exceeds it?

1. C[C@@H](O)c1nc2cnc3[nH]ccc3c2n1[C@H]1CC[C@H](CCC#N)CC1 | y
2. C[C@@H](O)c1nc2cnc3[nH]ccc3c2n1[C@H]1CC[C@@H](NCC(F)(F)F)C1 | n
3. C[C@@H](O)c1nc2cnc3[nH]ccc3c2n1[C@H]1CC[C@H](C#N)CC1 | n
4. C[C@@H](O)c1nc2cnc3[nH]ccc3c2n1[C@H]1CC[C@H](NCC(F)(F)F)CC1 | n
5. C[C@@H](O)c1nc2cnc3[nH]ccc3c2n1[C@H]1CC[C@H](CC#N)CC1 | y
